- TARGET_OR_SYSTEM: Triosephosphate isomerase, glycosomal (Trypanosoma cruzi)
- PROCEDURE_DETAILS: Inhibition of Trypanosoma cruzi triosephosphate isomerase at 400 uM after 2 hrs
Given measured inhibition, output Yes if it is greater than or equal to 20% and No if not.

Some solved cases for reference:
COC(=O)N/N=C/c1ccc2nonc2c1	No
C/C(=C\c1ccc2c(c1)OCO2)[N+](=O)[O-]	Yes
[O-][n+]1onc2ccc(/C=N/N=C/c3cc(Br)ccc3O)cc21	Yes
CCCCCCN/N=C/c1no[n+]([O-])c1C	Yes
CCCCNC(=O)c1ccc2no[n+]([O-])c2c1	No

Exercise: Check this molecule for inhibition at or above 20%: O=C(CN1C(=O)c2ccccc2C1=O)c1ccccc1
Key: No

Exercise: Check this molecule for inhibition at or above 20%: CCCCNC(=O)N/N=C/c1ccc([N+](=O)[O-])s1
Key: No

Exercise: Check this molecule for inhibition at or above 20%: CCOC(=O)/C=C/c1ccc([N+](=O)[O-])o1
Key: No

Exercise: Check this molecule for inhibition at or above 20%: [O-][N+]1=c2ccc(/C=N/O)cc2=[N+]([O-])C12CCCC2
Key: No

Exercise: Check this molecule for inhibition at or above 20%: NC(=S)N/N=C/c1ccc([N+](=O)[O-])o1
Key: Yes

Exercise: Check this molecule for inhibition at or above 20%: Cc1nnc[n+]([O-])c1/C=C/c1ccc([N+](=O)[O-])s1
Key: Yes

###

- TARGET_OR_SYSTEM: Triosephosphate isomerase (Homo sapiens)
- PROCEDURE_DETAILS: Inhibition of human triosephosphate isomerase at 100 uM after 2 hrs
QUANTITY_MEASURED: inhibition (%)
Write it as a number; the unit % goes unstated.

Solved cases (3 shown):
Cc1ccc(-c2nsc(=O)[nH]2)cc1	59
O=c1oc(-c2ccccc2)ns1	0
O=C1C(=Cc2ccc([N+](=O)[O-])o2)C(=O)N(Cc2ccccc2)S(=O)(=O)N1Cc1ccccc1	0

Exercise: Entry [O-][n+]1c2ccc(O)cc2[n+]([O-])c2cc(Cl)c(Cl)cc21 : reported inhibition = ?
Key: 0

###

- TARGET_OR_SYSTEM: Triosephosphate isomerase, glycosomal (Trypanosoma cruzi) (UniProt P52270)
- Sequence (P52270 whole entry): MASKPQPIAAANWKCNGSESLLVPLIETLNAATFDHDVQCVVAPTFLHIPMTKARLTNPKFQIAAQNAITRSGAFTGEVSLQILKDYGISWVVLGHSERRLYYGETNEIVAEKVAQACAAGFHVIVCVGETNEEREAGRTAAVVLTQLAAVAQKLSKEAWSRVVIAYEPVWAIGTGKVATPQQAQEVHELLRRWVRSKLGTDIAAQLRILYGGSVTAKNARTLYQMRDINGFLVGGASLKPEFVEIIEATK
- PROCEDURE_DETAILS: Inhibition of Trypanosoma cruzi triosephosphate isomerase at 100 uM after 2 hrs
Listed compounds paired with reported inhibition
Write it as a number; the unit % goes unstated.

Solved cases (2 shown):
Cc1c(/C=N/NC(N)=S)no[n+]1[O-]	56
Cc1c(CNc2ccc3ccccc3c2)no[n+]1[O-]	0

Exercise: Under Triosephosphate isomerase, glycosomal (Trypanosoma cruzi) (UniProt P52270): inhibition value of O=c1oc(-c2ccccc2)ns1 ?
Key: 81

Exercise: Under Triosephosphate isomerase, glycosomal (Trypanosoma cruzi) (UniProt P52270): inhibition value of C/C(=C\c1ccc(Br)cc1)[N+](=O)[O-] ?
Key: 0

Exercise: Under Triosephosphate isomerase, glycosomal (Trypanosoma cruzi) (UniProt P52270): inhibition value of [O-][n+]1c2ccc(O)cc2[n+]([O-])c2cc(Cl)c(Cl)cc21 ?
Key: 73

Exercise: Under Triosephosphate isomerase, glycosomal (Trypanosoma cruzi) (UniProt P52270): inhibition value of O=C1C(=Cc2ccc([N+](=O)[O-])o2)C(=O)N(Cc2ccccc2)S(=O)(=O)N1Cc1ccccc1 ?
Key: 82

Exercise: Under Triosephosphate isomerase, glycosomal (Trypanosoma cruzi) (UniProt P52270): inhibition value of O=C(N/N=C/C=C/c1ccc([N+](=O)[O-])o1)Nc1ccc2ccccc2c1 ?
Key: 47

Exercise: Under Triosephosphate isomerase, glycosomal (Trypanosoma cruzi) (UniProt P52270): inhibition value of [O-][n+]1onc2ccc(/C=C/c3ccc4c(c3)OCO4)cc21 ?
Key: 21

Exercise: Under Triosephosphate isomerase, glycosomal (Trypanosoma cruzi) (UniProt P52270): inhibition value of O=C1C(=Cc2ccc([N+](=O)[O-])s2)C(=O)N(CCc2ccccc2)S(=O)(=O)N1CCc1ccccc1 ?
Key: 68

Exercise: Under Triosephosphate isomerase, glycosomal (Trypanosoma cruzi) (UniProt P52270): inhibition value of CCOC(=O)c1nc(-c2ccccc2)ns1 ?
Key: 69

Exercise: Under Triosephosphate isomerase, glycosomal (Trypanosoma cruzi) (UniProt P52270): inhibition value of O=C1C(=Cc2ccc([N+](=O)[O-])cc2)C(=O)N(CCc2ccccc2)S(=O)(=O)N1CCc1ccccc1 ?
Key: 58

Exercise: Under Triosephosphate isomerase, glycosomal (Trypanosoma cruzi) (UniProt P52270): inhibition value of O=c1cc(-c2ccccc2)oc2ccccc12 ?
Key: 52

Source of measurements: ChEMBL document CHEMBL1629474
